melting point: recorded values

Compound: Cc1c(C(C)(C)C)s/c(=N\C(=O)c2c(Cl)cncc2Cl)n1CC1CC1 [compound 308]
melting point: 260 to 261 °C

For Cc1s/c(=N\C(=O)c2ccccc2Br)n(CC2CC2)c1C [compound 76] , what is its reported melting point?
114 to 116 °C

I am curious: what melting point value has been reported for Cc1c(C(C)(C)C)s/c(=N\C(=O)c2cc(F)c(F)cc2F)n1CC1CC1 [compound 283] ?
78 to 79 °C

Which melting point value belongs to CCOCCn1/c(=N/C(=O)c2cccc(Br)c2C)cc(C(C)(C)C)n1C [compound 491] ?
125 to 126 °C

Suppose we examine the compound CCn1c(C)c(C(C)(C)C)s/c1=N\C(=O)c1ccccc1C(F)(F)F [compound 151] ; what melting point value has been reported?
74 to 76 °C

Any idea what its melting point is? The compound is Cc1c(C(C)(C)C)s/c(=N\C(=O)c2cccc3cccnc23)n1CC1CC1 [compound 322]
193 to 195 °C

----------
Molecular target: human CB2 receptor (Homo sapiens, UniProt P34972)
Construct: expressed in transfected cells
Sequence (P34972 whole entry): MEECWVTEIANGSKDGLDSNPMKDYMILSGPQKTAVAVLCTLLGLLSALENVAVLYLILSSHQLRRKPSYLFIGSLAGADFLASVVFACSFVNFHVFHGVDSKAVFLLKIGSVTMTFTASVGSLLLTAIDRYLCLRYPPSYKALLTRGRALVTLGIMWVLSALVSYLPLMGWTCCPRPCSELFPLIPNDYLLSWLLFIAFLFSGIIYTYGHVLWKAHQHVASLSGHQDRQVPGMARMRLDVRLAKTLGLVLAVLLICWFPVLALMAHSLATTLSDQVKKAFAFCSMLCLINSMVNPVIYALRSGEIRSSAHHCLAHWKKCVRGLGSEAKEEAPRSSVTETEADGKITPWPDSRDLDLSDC
Assay: Human CB2 receptor binding inhibition test ([3H]CP-55,940, CHO membrane fractions)
Conditions: [3H]CP-55,940, membrane fractions of CHO cells stably expressing human CB2 receptor, 25° C., 2 hours; read-out: CB2 IC50 (Inhibition of binding to human CB2 receptor)
Measured parameter: IC50 (nM)
Entry rule: numbers only, all in nM.

Some solved cases for reference:
Molecule: Cc1s/c(=N\C(=O)CC(C)CC(C)(C)C)n(CC2CC2)c1C (racemic)
IC50 [nM]: 6.5
--
Molecule: COc1ccc(OC)c(C(=O)/N=c2\sc(C(C)(C)C)c(C)n2CC2CC2)c1
IC50 [nM]: 0.7
--
Molecule: CCn1c(C)c(C(C)(C)C)s/c1=N\C(=O)c1cc(F)c(Cl)cc1Cl
IC50 [nM]: 8.5

// below: IC50 requested for another molecule
Find the recorded IC50 belonging to "COCCOc1ccc(C(F)(F)F)cc1C(=O)/N=c1\sc(C(C)(C)C)c(C)n1CC1CC1" and report it.
0.7

----------
Biological target: human CB1 receptor (Homo sapiens, UniProt P21554)
Construct: expressed in transfected cells
Sequence (P21554 whole entry): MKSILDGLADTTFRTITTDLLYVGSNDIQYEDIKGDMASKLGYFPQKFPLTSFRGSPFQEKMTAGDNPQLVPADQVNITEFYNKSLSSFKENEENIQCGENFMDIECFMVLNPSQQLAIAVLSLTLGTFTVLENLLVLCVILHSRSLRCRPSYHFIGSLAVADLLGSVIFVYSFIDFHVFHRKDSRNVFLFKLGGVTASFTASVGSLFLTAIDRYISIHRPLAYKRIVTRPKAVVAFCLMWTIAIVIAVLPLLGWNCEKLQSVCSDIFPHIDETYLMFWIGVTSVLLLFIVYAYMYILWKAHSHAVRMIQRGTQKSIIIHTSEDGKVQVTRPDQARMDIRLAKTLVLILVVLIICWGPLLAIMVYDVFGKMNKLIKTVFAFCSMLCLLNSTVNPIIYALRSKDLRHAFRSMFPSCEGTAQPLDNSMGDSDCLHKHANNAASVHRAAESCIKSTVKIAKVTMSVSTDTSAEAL
Experiment: Human CB1 receptor binding inhibition test
Conditions: CHO-DHFR(−) cells stably expressing human CB1 receptor, same manner as Experimental Example 1
Method: Human CB1 Receptor Binding Inhibition Test The CHO-DHFR(−) cells capable of stably expressing a CB1 receptor were prepared in the same manner as in Experimental Example 1. The binding test to the human CB1 receptor was performed to obtain 50% inhibitory concentration (IC50 value) of a test compound.
Measured parameter: pIC50
Units for pIC50: none; it is -log10 of a concentration expressed in mol/L.

Sample records with pIC50:
Query smiles: Cc1c(C(C)(C)C)s/c(=N\C(=O)c2nc(Cl)ccc2Cl)n1CC1CC1
pIC50: 7.17
--
Query smiles: Cc1c(C(C)(C)C)s/c(=N\C(=O)c2ccc(F)cc2Br)n1CC1CC1
pIC50: 6.58
--
Query smiles: Cc1c(C(C)(C)C)s/c(=N\C(=O)c2ccccc2I)n1CC1CC1
pIC50: 6.71

Given the compound "Cc1ccc(C(=O)/N=c2\sc(C(C)(C)C)c(C)n2CC2CC2)c(Br)c1" , what is its reported pIC50?
6.50

Fill in the blank: the reported pIC50 of "Cc1c(C(C)(C)C)s/c(=N\C(=O)c2cc(F)ccc2Br)n1CC1CC1" is ____.
6.64

Which pIC50 is reported for this compound? "Cc1c(C(C)(C)C)s/c(=N\C(=O)c2ccnc3ccccc23)n1CC1CC1"
6.44

Could you share which pIC50 value was measured for "Cc1c(C(C)(C)C)s/c(=N\C(=O)c2cc(Cl)cnc2Cl)n1CC1CC1" ?
6.39

Please look up its pIC50: "Cc1c(C(C)(C)C)s/c(=N\C(=O)c2c(F)cccc2C(F)(F)F)n1CC1CC1"
6.99
